Test system: CAKI-1 renal
Assay: NCI tumour cell line growth inhibition, 48 h
Readout Type: TGI

Compound | Measured
Cn1c(-c2nonc2N)nc2cnccc21 | > 25 µM
COc1ccc(CN2CCCC(C(=O)c3ccc(C(F)(F)F)cc3)C2)c(O)c1 (configuration not stated) | > 100 µM
COc1cc2c(cc1OC)C(=O)/C(=C/c1cc(C)c(O)c(C)c1)C2 | > 100 µM
CNC(=O)c1cc(Oc2ccc3c(c2)sc2nc(-c4ccc(N)cc4)cn23)ccn1 | > 100 µM
CC[n+]1ccc2c(c1)C(=O)c1nccc3c1c-2nc1ccccc13 | > 33.3 µM
C(=Nc1ccc(-c2nc3ccccc3s2)cc1)c1ccco1 | > 100 µM
ClCc1ccccc1CSc1ncnc2nc[nH]c12 | > 60 µM
CCOC(=O)C(=O)N1C(C)=C(C(=O)OCC)CC(C(=O)OCC)=C1C | > 100 µM
COc1ccc(/C=C(/C(=O)O)c2cc(OC)c(OC)c(OC)c2)cc1 | > 100 µM
CCn1c(=O)c2c3cc(O)ccc3oc2c2ccc(O)cc21 | > 100 µM
C#CC(C)(C)Oc1cc(O)c2c(=O)c3ccccc3n(C)c2c1 | > 100 µM
COc1cc2c(cc1OC)C1C=NC(C(=O)O)(C2)c2ccccc21 (configuration not stated) | > 100 µM
